biological target: IMP-1 (Serratia marcescens, UniProt P52699); test: Enzyme activity: determination of IC50, fluorescence assay with CCF2-FA substrate; format: biochemical; settings: enzyme 2 pM, CCF2-FA 1.25 μM, 2 hours at 25° C.; read-out: IMP1 IC50
Sequence (P52699 19-246, looked up, species assumed): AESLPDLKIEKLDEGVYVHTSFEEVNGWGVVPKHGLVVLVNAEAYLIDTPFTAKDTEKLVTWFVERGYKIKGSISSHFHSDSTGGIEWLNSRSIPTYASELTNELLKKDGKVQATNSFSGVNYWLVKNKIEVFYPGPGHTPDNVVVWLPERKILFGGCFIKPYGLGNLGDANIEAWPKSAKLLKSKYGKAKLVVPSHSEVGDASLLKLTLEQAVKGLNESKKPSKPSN
Exercise: for every item that follows, state its recorded IC50.
Numbers only, in nM.

Consider the worked cases shown below.
{"Molecule": "CCC[C@H](C(=O)O)[C@H](Cc1ccc(-c2cn(C)c(=O)n(C)c2=O)cc1)c1nn[nH]n1", "IC50 (nM)": 91}
{"Molecule": "O=C(O)[C@@H](C1CCOC1)[C@H](Cc1ccc(C2CCNC2)cc1)c1nnn[nH]1 (some centres unmarked)", "IC50 (nM)": 5900}
{"Molecule": "CCC[C@H](C(=O)O)[C@H](Cc1ccc(-c2c(C)nn(C)c2C)cc1)c1nnn[nH]1", "IC50 (nM)": 5.8}
{"Molecule": "CCC[C@H](C(=O)O)[C@H](Cc1ccc(-c2ccc3ncnn3c2)cc1)c1nnn[nH]1", "IC50 (nM)": 58}
{"Molecule": "CC(C)C[C@H](C(=O)O)[C@H](Cc1ccc(-c2ccc(S(N)(=O)=O)cc2)cn1)c1nn[nH]n1", "IC50 (nM)": 840}

Give me IC50 for each of these molecules, listed below.
1. O=C(O)[C@@H](CCC1CCCCC1)[C@H](Cc1ccccc1)c1nnn[nH]1
2. CCC[C@H](C(=O)O)[C@H](Cc1ccc(-c2ccccc2CN2CCCCC2)cc1)c1nn[nH]n1
3. CCC[C@H](C(=O)O)[C@H](Cc1ccc(-c2ccc3c(c2)OCC(=O)N3)cn1)c1nnn[nH]1
4. CCC[C@H](C(=O)O)[C@H](Cc1ccc(-c2ccc(-c3nn[nH]n3)cc2)nc1)c1nn[nH]n1
5. CC(C)C[C@H](C(=O)O)[C@H](Cc1ccc(C#N)cc1)c1nnn[nH]1
6. CC(C)CCCCC[C@H](C(=O)O)[C@H](Cc1ccc2c(c1)OCO2)c1nnn[nH]1
7. CCC[C@H](C(=O)O)[C@H](Cc1ccc(NCC2CCCN2CC)cc1)c1nn[nH]n1 (some centres unmarked)

230
63
1600
380
190
49
1100

Give me IC50 for each of these molecules, listed below.
1. CCC[C@H](C(=O)O)[C@H](Cc1ccc2ccc(N)nc2c1)c1nnn[nH]1
2. CCC[C@H](C(=O)O)[C@H](Cc1ccc(-c2ccc(C3(O)CNC3)cc2)nc1)c1nnn[nH]1
3. CC(C)=CCC[C@@H](C(=O)O)[C@H](Cc1ccccc1)c1nnn[nH]1
4. CC(C)[C@H](C(=O)O)[C@H](Cc1ccc(N)cn1)c1nnn[nH]1
5. CCC[C@H](C(=O)O)[C@H](Cc1ccc(N2CCN(C(C)=O)CC2)cc1)c1nn[nH]n1
6. CC(C)C[C@H](C(=O)O)[C@H](Cc1ccc(-c2ccc([C@@H]3OC(=O)N[C@@H]3C)cc2)cn1)c1nn[nH]n1
7. CCC[C@H](C(=O)O)[C@H](Cc1ccc(Br)nc1)c1nnn[nH]1
8. Cc1cc(C[C@H](c2nnn[nH]2)[C@@H](C(=O)O)C(C)C)ccc1C1CCNC1 (some centres unmarked)

1: 4500; 2: 3700; 3: 1600; 4: 12000; 5: 220; 6: 500; 7: 1700; 8: 1400

Give me IC50 for each of these molecules, listed below.
1. O=C(O)[C@@H](CCF)[C@H](Cc1ccccc1)c1nnn[nH]1
2. CCC[C@H](C(=O)O)[C@H](Cc1ccc(NCc2cc(OC)cc(OC)c2)nc1)c1nnn[nH]1
3. CCC[C@H](C(=O)O)[C@H](Cc1ccc(-c2ccc3c(c2)CCC(N)C3)cc1)c1nn[nH]n1 (some centres unmarked)
4. CCC[C@H](C(=O)O)[C@H](Cc1ccc(NCCN2CCCCC2)cc1)c1nn[nH]n1
5. C[C@@H](c1ccccc1)[C@H](c1nnn[nH]1)[C@H](CCF)C(=O)O
6. CC(C)C[C@H](C(=O)O)[C@H](Cc1ccc(N)nc1)c1nnn[nH]1 [Example 112, 2,2,2-trifluoroacetate]
7. CC(C)=CCCC(C(=O)O)[C@H](Cc1ccccc1)c1nnn[nH]1 (stereo in doubt)
8. CCC[C@H](C(=O)O)[C@H](Cc1ccc(NC)cn1)c1nnn[nH]1

1: 2700; 2: 370; 3: 45; 4: 2400; 5: 1800; 6: 570; 7: 4800; 8: 7900
